System: Diabrotica balteata (Corn Root Worm)
METHOD NOTES: Diabrotica balteata larvae test on artificial diet
Type: in vivo
SETUP CONDITIONS: 120 h, 200 ppm (concentration in well 18 ppm), L2 larvae, larval mortality and growth regulation after 5 days
OBSERVED PROPERTY: pest or weed control at 200 ppm

Previously resolved entries follow.
N#Cc1ccc(C2=NOC(c3cc(Cl)cc(Cl)c3)(C(F)(F)F)C2)cc1NC(=O)c1ccccc1F (centres unmarked) | ≥ 80%
Cc1ccc(C(=O)Nc2cc(C3=NOC(c4cc(Cl)cc(Cl)c4)(C(F)(F)F)C3)ccc2C#N)cc1 (centres unmarked) | ≥ 80%

Query: Please report the recorded pest or weed control at 200 ppm for O=C(Nc1cc(C2=NOC(c3cc(Cl)cc(Cl)c3)(C(F)(F)F)C2)ccc1F)c1ccccc1Cl (centres unmarked) .
Response: ≥ 80%

Query: Here is the next compound: N#Cc1ccc(C2=NOC(c3cc(Cl)cc(Cl)c3)(C(F)(F)F)C2)cc1NC(=O)c1cccc(F)c1F (centres unmarked)
Response: ≥ 80%

Query: Here is the next compound: N#Cc1ccc(C2=NOC(c3cc(Cl)cc(Cl)c3)(C(F)(F)F)C2)cc1NC(=O)c1ccc(F)cc1 (centres unmarked)
Response: ≥ 80%

Query: Here is the next compound: O=C(Nc1cc(C2=NOC(c3cc(Cl)cc(Cl)c3)(C(F)(F)F)C2)ccc1F)c1ccccc1F (centres unmarked)
Response: ≥ 80%

Query: Here is the next compound: N#Cc1ccc(C2=NOC(c3cc(Cl)cc(Cl)c3)(C(F)(F)F)C2)cc1NC(=O)c1ccc([N+](=O)[O-])cc1 (centres unmarked)
Response: ≥ 80%

Query: Here is the next compound: O=C(Nc1cc(C2=NOC(c3cc(Cl)cc(Cl)c3)(C(F)(F)F)C2)ccc1F)c1ccc(F)cc1 (centres unmarked)
Response: ≥ 80%

###

Tested on: Heliothis virescens (Tobacco Budworm)
METHOD NOTES: Heliothis virescens egg test on artificial diet
Format: in vivo
SETUP CONDITIONS: 96 h, 200 ppm (concentration in well 18 ppm), eggs 0-24 h old on artificial diet, egg mortality, larval mortality, growth regulation after 4 days
# pest or weed control at 200 ppm listing for each entry below

Previously resolved entries follow.
Cc1ccccc1C(=O)Nc1cc(C2=NOC(c3cc(Cl)cc(Cl)c3)(C(F)(F)F)C2)ccc1F (stereo not drawn) [C6] | ≥ 80%
Cc1ccc(C(=O)Nc2cc(C3=NOC(c4cc(Cl)cc(Cl)c4)(C(F)(F)F)C3)ccc2F)cc1 (stereo not drawn) [C9] | ≥ 80%

Continue with the next compound.
Query: Please report the recorded pest or weed control at 200 ppm for O=C(Nc1cc(C2=NOC(c3cc(Cl)cc(Cl)c3)(C(F)(F)F)C2)ccc1F)c1ccc(F)cc1 (stereo not drawn) [C20] .
Response: ≥ 80%

###

Tested on: Diabrotica balteata (Corn Root Worm)
METHOD NOTES: Diabrotica balteata larvae test on artificial diet
Type: in vivo
SETUP CONDITIONS: 120 h, 200 ppm (concentration in well 18 ppm), L2 larvae, larval mortality and growth regulation after 5 days
OBSERVED PROPERTY: pest or weed control at 200 ppm

Previously resolved entries follow.
O=C(Nc1cc(C2=NOC(c3cc(Cl)cc(Cl)c3)(C(F)(F)F)C2)ccc1F)c1ccccc1 (stereo not shown) | ≥ 80%
COc1ccccc1C(=O)Nc1cccc(C2=NOC(c3cc(Cl)cc(Cl)c3)(C(F)(F)F)C2)c1F (stereo not shown) | ≥ 80%
Cc1ccc(C(=O)Nc2cc(C3=NOC(c4cc(Cl)cc(Cl)c4)(C(F)(F)F)C3)ccc2F)cc1 (stereo not shown) | ≥ 80%

Continue with the next molecule.
Query: Please report the recorded pest or weed control at 200 ppm for O=C(Nc1cccc(C2=NOC(c3cc(Cl)cc(Cl)c3)(C(F)(F)F)C2)c1F)c1ccccc1F (stereo not shown) .
Response: ≥ 80%
